Biological target: Mer (h) (Homo sapiens, UniProt Q12866)
Sequence (Q12866 21-999): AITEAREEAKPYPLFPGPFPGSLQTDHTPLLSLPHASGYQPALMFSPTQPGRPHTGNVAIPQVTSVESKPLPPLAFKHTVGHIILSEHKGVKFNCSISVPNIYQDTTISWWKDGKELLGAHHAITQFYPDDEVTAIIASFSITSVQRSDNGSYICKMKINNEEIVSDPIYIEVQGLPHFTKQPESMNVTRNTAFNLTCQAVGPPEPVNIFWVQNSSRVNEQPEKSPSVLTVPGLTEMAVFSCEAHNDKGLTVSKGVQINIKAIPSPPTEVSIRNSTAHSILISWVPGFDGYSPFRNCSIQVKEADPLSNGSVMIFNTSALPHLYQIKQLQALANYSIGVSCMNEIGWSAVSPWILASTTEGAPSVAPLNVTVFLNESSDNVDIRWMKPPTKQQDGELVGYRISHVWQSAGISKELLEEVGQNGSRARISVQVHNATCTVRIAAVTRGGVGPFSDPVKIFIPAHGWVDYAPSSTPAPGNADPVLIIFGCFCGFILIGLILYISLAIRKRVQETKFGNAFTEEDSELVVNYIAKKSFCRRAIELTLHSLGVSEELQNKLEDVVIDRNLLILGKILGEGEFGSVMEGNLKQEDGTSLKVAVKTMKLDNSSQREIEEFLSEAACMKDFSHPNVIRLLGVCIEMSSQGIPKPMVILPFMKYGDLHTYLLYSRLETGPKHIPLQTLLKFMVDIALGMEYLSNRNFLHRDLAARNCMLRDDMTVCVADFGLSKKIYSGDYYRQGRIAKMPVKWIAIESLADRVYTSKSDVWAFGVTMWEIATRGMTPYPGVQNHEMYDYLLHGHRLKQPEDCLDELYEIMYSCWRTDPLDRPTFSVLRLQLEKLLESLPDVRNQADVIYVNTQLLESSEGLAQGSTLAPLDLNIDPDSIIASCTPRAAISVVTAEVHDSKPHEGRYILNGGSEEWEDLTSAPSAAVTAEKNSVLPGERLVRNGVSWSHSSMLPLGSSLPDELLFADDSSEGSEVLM
ASSAY_READOUT: pIC50
pIC50 here is simply -log10 of the concentration when that concentration is written in mol/L.

>  <COMPOUND>
COc1cc2nccc(Oc3cnc(NC(=O)c4nn(C(C)C)cc(-c5ccc(F)cc5)c4=O)nc3)c2cc1OC [Compound 16]

>  <pIC50>
8.70

$$$$

Test system Mer (h) (Homo sapiens, UniProt Q12866); read-out pIC50; what value for COc1cc2nccc(Oc3ncc(NC(=O)c4nn(C(C)C)cc(-c5ccc(F)cc5)c4=O)cn3)c2cc1OC [Compound 34] ?
8.70

Same for COc1cc2nccc(Oc3cnc(NC(=O)c4cn(C(C)C)cc(-c5ccc(F)cc5)c4=O)nc3)c2cc1OC [Compound 20]
8.52

Same for COc1cc2nccc(Oc3ccc(NC(=O)c4cn(C(C)C)nc(-c5ccc(F)cc5)c4=O)cn3)c2cc1OC [Compound 38]
8.52

----------
In this section we review reported half-life at 1 μM values for a set of compounds.
experiment: Stability in liver microsome of dogs; format: in vitro ADME; conditions: liver microsomes; Dog liver microsome 0.5 mg protein/mL, compound 1 μM, 37° C.
A complete answer gives the number followed by the unit.

>  <COMPOUND_STRUCTURE_STRING>
COc1cc2nccc(Oc3ncc(NC(=O)c4cn(C5CC5)nc(-c5ccc(F)cc5)c4=O)cn3)c2cc1OC

>  <OBSERVED>
3.73 h

$$$$
>  <COMPOUND_STRUCTURE_STRING>
COc1cc2nccc(Oc3ccc(NC(=O)c4cn(C5CC5)cc(-c5ccc(F)cc5)c4=O)nc3)c2cc1OC

>  <OBSERVED>
0.938 h

$$$$
>  <COMPOUND_STRUCTURE_STRING>
COc1cc2nccc(Oc3ccc(NC(=O)c4cn(C5CC5)nc(-c5ccc(F)cc5)c4=O)cn3)c2cc1OC

>  <OBSERVED>
2.4 h

$$$$

Let us examine a further case.
What half-life at 1 μM value was documented for this compound, COc1cc2nccc(Oc3ncc(NC(=O)c4nn(C5CC5)cc(-c5ccc(F)cc5)c4=O)cn3)c2cc1OC ?
2.82 h
